- Assay system: His-DDB1–CRBN complex (human, UniProt Q96SW2 41-442; Q16531 1-1140)
- Assay text: 200 uM pomalidomide; AlphaScreen competition
Experimental endpoint: IC50 (nM)
Give the value in nM but do not write nM after it.

I am curious: what IC50 value has been reported for Label-free IKZF1 ZF2-3 (141-196) (domain or fragment) GERPFQCNQCGASFTQKGNLLRHIKLHSGEKPFKCHLCNYACRRRDALTGHLRTHS ?
67

Values compiled from paper PMC8831599.
